The reported numbers originate from patent US20260347364A1.

# STUDY SYSTEM: KRAS G12D (Homo sapiens, UniProt P01116, G12D)
# Construct: aa1-188 KRAS WT, HRAS WT, NRAS WT, or KRAS containing the G12D
# Sequence (P01116 1-188 isoform P01116-2 G12D): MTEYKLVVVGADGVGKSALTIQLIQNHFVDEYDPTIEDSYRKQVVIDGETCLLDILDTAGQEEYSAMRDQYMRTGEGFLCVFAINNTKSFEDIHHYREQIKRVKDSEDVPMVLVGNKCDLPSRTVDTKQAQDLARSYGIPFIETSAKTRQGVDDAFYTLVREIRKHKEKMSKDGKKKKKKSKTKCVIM
# PROTOCOL NOTES: HTRF nucleotide exchange assay, KRAS G12D
# Format: biochemical
# MEASUREMENT CONDITIONS: HTRF nucleotide exchange assay (NEA), class symbols
Measured IC50, listed per entry.

Please supply the value of reported IC50 for the item CCc1c(F)ccc2cc(O)cc(-c3cc4nc(OCC5CCCN(C)C5)nc(N5CCCOCC5)c4c4cn(C)nc34)c12 (stereo not drawn) [Example 32]
100 to 10000 nM

Return the recorded IC50 value; entry: CCc1c(F)ccc2cc(O)cc(-c3cc4nc(OC[C@@]56CCCN5C[C@H](F)C6)nc(N5CCOC(CO)C5)c4c4cn(C)nc34)c12 (stereo partly drawn) [Example 115]
≤ 10 nM

Identify measured IC50 associated with Cn1cc2c(n1)c(-c1cc(O)ccc1F)cc1nc(OC[C@@]34CCCN3C[C@H](F)C4)nc(N3CCCOCC3)c12 [Example 5]
100 to 10000 nM

====

# STUDY SYSTEM: KRAS WT (Homo sapiens, UniProt P01116)
# Sequence (P01116 1-188 isoform P01116-2): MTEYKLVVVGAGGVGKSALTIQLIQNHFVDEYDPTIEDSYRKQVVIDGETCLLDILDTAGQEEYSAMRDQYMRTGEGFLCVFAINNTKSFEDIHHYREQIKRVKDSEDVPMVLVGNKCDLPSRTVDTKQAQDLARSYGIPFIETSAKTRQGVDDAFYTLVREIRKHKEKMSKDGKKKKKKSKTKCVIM
Recorded measurements of IC50, one per entry

Field: example entries. Status: answers known.
Specify IC50 for CCc1c(F)ccc2cc(O)cc(-c3c(F)c4nc(OC[C@]5(C)CCCN5C)nc(N5CCOCC(C)(O)C5)c4c4cn(C)nc34)c12 (stereo partly drawn) , system KRAS WT (Homo sapiens, UniProt P01116).
≤ 10 nM

Consider the compound CCc1c(F)ccc2cc(O)cc(-c3c(C)c4nc(OCC5(C)CC(O)CN5)nc(N5CCOCC(C)(O)C5)c4c4cn(C)nc34)c12 (stereo not drawn) tested on KRAS WT (Homo sapiens, UniProt P01116); state its IC50.
≤ 10 nM

Continuing:
Lab note: record IC50 of CCc1c(F)ccc2cc(O)cc(-c3c(F)c4nc(OCC5(CN6CCC(O)CC6)CC5)nc(N5CCOCC(C)(O)C5)c4c4cn(C)nc34)c12 (stereo not drawn) tested on KRAS WT (Homo sapiens, UniProt P01116).
≤ 10 nM

====

# STUDY SYSTEM: KRAS G12D (Homo sapiens, UniProt P01116, G12D)
# Construct: aa1-188 KRAS WT, HRAS WT, NRAS WT, or KRAS containing the G12D
# PROTOCOL NOTES: HTRF nucleotide exchange assay, KRAS G12D
# MEASUREMENT CONDITIONS: HTRF nucleotide exchange assay (NEA), class symbols
Each entry below lists one item and its recorded IC50 value.

Identify the reported IC50 for the following entry. CCc1c(F)ccc2cc(O)cc(-c3c(C)c4nc(OC[C@@]56CCCN5C[C@H](F)C6)nc(N5CCCn6nc(C(=O)N(C)C)nc6C5)c4c4cn(C)nc34)c12 (racemic) [Example 198]
≤ 10 nM

Report IC50 for CCc1c(F)ccc2cc(O)cc(-c3cc4nc(OC[C@@]56CCCN5C[C@H](F)C6)nc(N5CCC(O)C(F)(F)CC5)c4c4cn(C)nc34)c12 (stereo partly drawn) [Example 126]
10 to 100 nM

Quickly give me recorded IC50 for CCc1c(F)ccc2cc(O)cc(-c3c(F)c4nc(OCC5(CN6CCC(CC#N)CC6)CC5)nc(N5CCOCC(C)(O)C5)c4c4cn(C)nc34)c12 (stereo not drawn) [Example 225]
≤ 10 nM

Supply recorded IC50 for C#Cc1c(F)ccc2cc(O)cc(-c3cc4nc(OC[C@@]56CCCN5C[C@H](F)C6)nc(N5CCCOCC5)c4c4cn(C)nc34)c12 [Example 2] here.
≤ 10 nM

====

# STUDY SYSTEM: KRAS G12D (Homo sapiens, UniProt P01116, G12D)
# Construct: aa1-188 KRAS WT, HRAS WT, NRAS WT, or KRAS containing the G12D
# PROTOCOL NOTES: HTRF nucleotide exchange assay, KRAS G12D
# MEASUREMENT CONDITIONS: HTRF nucleotide exchange assay (NEA), class symbols
MEASUREMENT LABEL: IC50

Below are worked cases with known answers.
State its IC50: CCc1c(F)ccc2c(F)c(O)cc(-c3cc4nc(OC[C@@]56CCCN5C[C@H](F)C6)nc(N5CCCn6nc(C(=O)N(C)C)cc6C5)c4c4cn(C)nc34)c12
≤ 10 nM

Look up and report measured IC50 for this entry: CCc1c(F)ccc2cc(O)cc(-c3cc4nc(OC[C@@]56CCCN5C[C@H](F)C6)nc(N5CCCn6nc(C)cc6C5)c4c4cn(C)nc34)c12
≤ 10 nM

Could you please provide reported IC50 for CCc1c(F)ccc2cc(O)cc(-c3c(F)c4nc(OCC5(C#N)CCOC5)nc(N5CC6CCC(C5)N6)c4c4cn(C)nc34)c12 (stereo not drawn) ? Thanks!
≤ 10 nM

Specify measured IC50 for CCc1c(F)ccc2cc(O)cc(-c3cc4nc(OC[C@@]56CCCN5C[C@H](F)C6)nc(N5CC6CNCC6C5)c4c4cn(C)nc34)c12 (stereo partly drawn) .
≤ 10 nM

# return recorded IC50 for entry CCc1c(F)ccc2cc(O)cc(-c3cc4nc(OC[C@@H]5CCN5C)nc(N5CCCn6nc(C(=O)N(C)C)cc6C5)c4c4cn(C)nc34)c12
≤ 10 nM

Name the recorded IC50 of the item CCc1c(F)ccc2cc(O)cc(-c3cc4nc(O[C@@H](C)[C@@H]5CCCN5C)nc(N5CCCn6nc(C(=O)N(C)C)cc6C5)c4c4cn(C)nc34)c12 (racemic) in your answer.
100 to 10000 nM

Field: next compound
Return reported IC50. Input compound: CCc1c(F)ccc2cc(O)cc(-c3c(F)c4nc(OC[C@@]5(CN(C)C)CC5(F)F)nc(N5CCOCC(C)(O)C5)c4c4cn(C)nc34)c12 (stereo partly drawn)
≤ 10 nM

====

Listed below: IC50 values for each entry.
# STUDY SYSTEM: KRAS G12D (Homo sapiens, UniProt P01116, G12D)
# Construct: aa1-188 KRAS WT, HRAS WT, NRAS WT, or KRAS containing the G12D
# PROTOCOL NOTES: HTRF nucleotide exchange assay, KRAS G12D
# MEASUREMENT CONDITIONS: HTRF nucleotide exchange assay (NEA), class symbols

Provide measured IC50 value, entry: CCc1c(F)ccc2cc(O)cc(-c3c(F)c4nc(OC[C@@H]5CCN5)nc(N5CCOCC(C)(O)C5)c4c4cn(C)nc34)c12 (stereo partly drawn) [Example 156]
≤ 0.01 µM

Assign IC50 to the following record: CCc1c(F)ccc2cc(O)cc(-c3c(F)c4nc(OCC5(CN(C)C)CC5)nc(N5CCOC[C@@](C)(O)C5)c4c4cn(C)nc34)c12 [Example 245]
≤ 0.01 µM

Others:
Retrieve IC50 measured for CCc1c(F)ccc2cc(O)cc(-c3c(F)c4nc(OC[C@@]56CCCN5C[C@H](F)C6)nc(N5CCCC(C#N)C5)c4c4cn(C)nc34)c12 (stereo partly drawn) [Example 176] and print it.
≤ 0.01 µM

====

# STUDY SYSTEM: KRAS G12D (Homo sapiens, UniProt P01116, G12D)
# Construct: aa1-188 KRAS WT, HRAS WT, NRAS WT, or KRAS containing the G12D
# PROTOCOL NOTES: HTRF nucleotide exchange assay, KRAS G12D
# MEASUREMENT CONDITIONS: HTRF nucleotide exchange assay (NEA), class symbols
# Procedure: HTRF Nucleotide Exchange Assay Method The capacity of compounds to bind KRAS G12D, other KRAS mutants and wildtype RAS isoforms was quantified using a HTRF nucleotide exchange assay. […] Following 30-minute incubation at room temperature, time-resolved fluorescence was measured on a PerkinElmer Envision plate reader. […] Data was analysed using a four-parameter logistic model to calculate IC50 values, with at least two independent replicates were performed for each compound. […]
Some molecules, each annotated with its measured IC50.

Check out these entries, answers already filled in.
Recall and state the measured IC50 for CCc1c(F)ccc2cc(O)cc(-c3c(F)c4nc(OC[C@@H]5CCCN5C)nc(N5CCOCC(C)(O)C5)c4c4cn(C)nc34)c12 (stereo partly drawn) [Example 154] .
≤ 0.01 µM

Report IC50 for CCc1c(F)ccc2cc(O)cc(-c3cc4nc(OC[C@@]56CCCN5C[C@H](F)C6)nc(N5CCCC(O)CC5)c4c4cn(C)nc34)c12 (stereo partly drawn) [Example 42]
0.01 to 0.1 µM

Output measured IC50 for this item: CCc1c(F)ccc2cc(O)cc(-c3c(F)c4nc(OCC5COCCN5)nc(N5CCOCC(C)(O)C5)c4c4cn(C)nc34)c12 (stereo not drawn) [Example 233]
≤ 0.01 µM

Output IC50 of Cc1cc2[nH]ncc2c(-c2cc3nc(OC[C@@]45CCCN4C[C@H](F)C5)nc(N4CCCn5nc(C(=O)N(C)C)cc5C4)c3c3cn(C)nc23)c1C(F)(F)F [Example 84]
≤ 0.01 µM

Supply IC50 value. Item: Cc1c(-c2ncc(F)c3sc(N)c(C#N)c23)c2nn(C)cc2c2c(N3CCOCC(C)(O)C3)nc(OC[C@@]34CCCN3C[C@H](F)C4)nc12 (stereo partly drawn) [Example 108]
0.1 to 10 µM

Answer with the recorded IC50 of CCc1c(F)ccc2cc(O)cc(-c3cc4nc(OC[C@@]56CCCN5C[C@H](F)C6)nc(N5CCCC6(CCC(O)C6)C5)c4c4cn(C)nc34)c12 (stereo partly drawn) [Example 200] only.
0.1 to 10 µM

Determine its reported IC50: CCc1c(F)ccc2cc(O)cc(-c3cc4nc(OC[C@@]56CCCN5C[C@H](F)C6)nc(N5CCCCC(C)(O)C5)c4c4cn(C)nc34)c12 (stereo partly drawn) [Example 10]
≤ 0.01 µM

Provide measured IC50 value, entry: CCc1c(F)ccc2cc(O)cc(-c3cc4nc(OC[C@@]56CCCN5C[C@H](F)C6)nc(N5CCCOCC5)c4c4cn(C5CC5)nc34)c12 [Example 44]
0.01 to 0.1 µM

Others:
Identify measured IC50 corresponding to CCc1c(F)ccc2cc(O)cc(-c3c(F)c4nc(OCC5(CN6CC7CC7C6)CC5)nc(N5CCOCC(C)(O)C5)c4c4cn(C)nc34)c12 (stereo not drawn) [Example 221]
≤ 0.01 µM

Find the measured IC50 of CCc1c(F)ccc2cc(O)cc(-c3cc4nc(OC[C@@]56CCCN5C[C@H](F)C6)nc(N5C6CCC5CN(CCCO)C6)c4c4cn(C)nc34)c12 [Example 89] and report it.
≤ 0.01 µM

Give reported IC50 value for CCc1c(F)ccc2cc(O)cc(-c3cc4nc(OC[C@@]56CCCN5C[C@H](F)C6)nc(N5CCCn6nc(C#N)cc6C5)c4c4cn(C)nc34)c12 [Example 73]
≤ 0.01 µM

Name the recorded IC50 of the item CCc1c(F)ccc2cc(O)cc(-c3c(F)c4nc(OC[C@@H]5C[C@@H](F)CN5)nc(N5CCOCC(C)(O)C5)c4c4cn(C)nc34)c12 (stereo partly drawn) [Example 150] in your answer.
≤ 0.01 µM
